Test: GF-AFC viability counterscreen for inhibitors of alpha-synuclein gene (SNCA) expression; further: nearly all actives have a fitted effect of over 30% in size
Details: HEK-293-SNCA-luc viability, GF-AFC fluorescence, 24 h; series mostly up to 57.1 µM
Out of some 150,000 compounds screened, about 180 (0.12%) were called active. Roughly 6% stayed inconclusive and do not appear here. The call rests on the fitted dose curve; in most records, active means well fitted cell-killing curve with a large enough effect; inconclusive means small, poorly fitted or top-dose-only effect, or effect the other way; inactive means flat fitted curve, though single readings scatter. For the sample, actives were picked, then their nearest neighbours and some compounds at random.
Outcome (select one): Yes (active), No (inactive)

Use these answered entries as a reference point.
• COC(=O)CNC(=O)C1CCCN1Cc1ccc(-c2cc(C)cc(C)c2)cc1 (stereo not drawn) = No
• CCOc1ccc(C(=O)N2C[C@@H](CO)[C@H](c3ccncc3)C2)cc1 = No
• Cc1ccc(S(=O)(=O)N2CCCN(C)c3ccccc32)cc1Cl = No
• CN(Cc1cccnc1)C1CN(C(=O)Nc2ccccc2F)C1 = No

Moving on to another compound below.
Hello, I am checking results. What call was entered for O=C(NCc1ccccc1F)c1nc2cccnc2n(C2CC2)c1=O ?
No

###

Assay: GF-AFC viability counterscreen for inhibitors of alpha-synuclein gene (SNCA) expression; further: nearly all actives have a fitted effect of over 30% in size
Conditions: HEK-293-SNCA-luc viability, GF-AFC fluorescence, 24 h; series mostly up to 57.1 µM
The campaign covered roughly 150,000 compounds. About 180 (0.12%) were called active. About 6% were inconclusive and are not listed. Calls come from the whole dose curve; as a rule, active = well fitted cell-killing curve with a large enough effect; inconclusive = small, poorly fitted or top-dose-only effect, or effect the other way; inactive = flat fitted curve, though single readings scatter. The entries come from a sample that favours actives as a whole.
Outcome (select one): active, inactive

Use these answered entries as a reference point.
- COc1ccc(-n2nc(C)c([C@@H]3C=C[C@@H](NC(=O)Nc4ccccc4)C3)c2C)cc1: inactive
- CCOc1ccc(NC(=O)CN(Cc2ccccc2)S(=O)(=O)c2ccc(Cl)cc2)cc1: inactive
- Cc1ccc(C(=O)N2CCC(C(=O)N3CCC(c4nc5ncccc5[nH]4)CC3)C2)cc1 (centres undefined): inactive

Hello, I am checking results. What call was entered for O=C(c1cccc(C(F)(F)F)c1)N1C[C@@H](CO)[C@H](c2ccccn2)C1 ?
inactive

Hello, I am checking results. What call was entered for CCOc1ccccc1CN1CCC(Cc2nc(-c3cccnc3)n[nH]2)C1 (centres undefined) ?
inactive

Hello, I am checking results. What call was entered for COc1nc2nc(CC3CC3)n(C)c2cc1-c1cccc(NC(C)=O)c1 ?
inactive

Hello, I am checking results. What call was entered for COC(=O)[C@@H]1Cc2c([nH]c3ccccc23)[C@H]2C[C@@H](NCCN3CCOCC3)C[C@@H](c3ccccc3)N21 ?
inactive

Hello, I am checking results. What call was entered for COC(=O)[C@@H]1Cc2c([nH]c3ccccc23)[C@H]2C[C@@H](NCCN3CCOCC3)C[C@@H](c3ccccc3F)N21 ?
active

Hello, I am checking results. What call was entered for Cc1nc(N2CCCCC2)ncc1C(=O)N1CCC2(CCCNC2=O)C1 (centres undefined) ?
inactive

Hello, I am checking results. What call was entered for COC(=O)N1CCC(C(=O)N2CCC3(CC2)CC(=O)Nc2ccccc2O3)CC1 ?
inactive

Hello, I am checking results. What call was entered for CCCCS(=O)(=O)N1CCCC(Cn2c(C3CC3)nc3cccnc32)C1 (centres undefined) ?
inactive

Hello, I am checking results. What call was entered for COc1ccc(NC(=O)N[C@H]2[C@H](O)[C@@H](N3CCN(c4ccccc4)CC3)[C@@H]3OC[C@H]2O3)cc1 ?
inactive

###

Assay: GF-AFC viability counterscreen for inhibitors of alpha-synuclein gene (SNCA) expression; further: nearly all actives have a fitted effect of over 30% in size
Details: HEK-293-SNCA-luc viability, GF-AFC fluorescence, 24 h; series mostly up to 57.1 µM
The whole screen tested about 150,000 compounds, of which about 180 (0.12%) were called active. Inconclusive results (about 6%) are left out. Calls come from the whole dose curve; as a rule, active = well fitted cell-killing curve with a large enough effect; inconclusive = small, poorly fitted or top-dose-only effect, or effect the other way; inactive = flat fitted curve, though single readings scatter. The sample holds actives, similar compounds and a random draw of the others, so the mix is not that of the screen.
Outcome (select one): y (active), n (inactive)

Use these answered entries as a reference point.
* O=C(C1CCCC1)N1C[C@@H](CO)[C@H](c2ccncc2)C1 | y
* O[C@@H]1C[C@@H](c2nc(-c3ccc4c(c3)OCO4)no2)N(Cc2ccc(-c3ccccn3)cc2)C1 | n
* O=C1Nc2ccccc2CC12CCCN2Cc1ccccc1 (stereo not drawn) | n

Hello, I am checking results. What call was entered for Cc1cccc(N2Cc3c(NCCCN4CCCCC4)ncnc3N(C)CC2=O)c1 ?
n

Hello, I am checking results. What call was entered for COCC(=O)N[C@H]1C[C@H]2C(=O)Nc3ccc(/C=C/c4ccc(OC)cc4)cc3C(=O)N2C1 ?
n

Hello, I am checking results. What call was entered for CN(C)C[C@@H]1CN(S(C)(=O)=O)C[C@H]1NC(=O)c1nn(C)c2ccccc12 ?
n

Hello, I am checking results. What call was entered for Cc1cc(N2CCC3(CC2)CC(c2ccccc2)C(=O)N3C)ncn1 (stereo not drawn) ?
n

Hello, I am checking results. What call was entered for O=C(NCc1ccnc2[nH]ccc12)c1ccccn1 ?
n

###

Assay: GF-AFC viability counterscreen for inhibitors of alpha-synuclein gene (SNCA) expression; further: nearly all actives have a fitted effect of over 30% in size
Conditions: HEK-293-SNCA-luc viability, GF-AFC fluorescence, 24 h; series mostly up to 57.1 µM
Screen size: about 150,000 compounds; about 180 (0.12%) were called active. About 6% were inconclusive and are not listed. Calls follow the shape of the dose curve; as a rule, active = well fitted cell-killing curve with a large enough effect; inconclusive = small, poorly fitted or top-dose-only effect, or effect the other way; inactive = flat fitted curve, though single readings scatter. Many of the other results were omitted from the sample, so actives are more common in it than they were.
Outcome (select one): active, inactive

Use these answered entries as a reference point.
* Cc1cccc(C(=O)N2CCC(OC3CCN(Cc4ccccc4)CC3)CC2)c1 | inactive
* CC(C)c1ccc(S(=O)(=O)N2CCc3nn(C)c(=O)n3CC2)cc1 | inactive

Hello, I am checking results. What call was entered for Cc1ccc(NC(=O)CN2CC3CC(C2)[C@H]2CCCC(=O)N2C3)cc1 (some centres not stated) ?
inactive

Hello, I am checking results. What call was entered for O=C(Nc1ccccc1)N1CCC(C(=O)N2CCCC(c3nc4ccncc4[nH]3)C2)CC1 (configuration not stated) ?
inactive

Hello, I am checking results. What call was entered for COCCC(=O)N1CCCCCCNC(=O)[C@@H]2CCCC[C@@H]21 ?
inactive

Hello, I am checking results. What call was entered for O=C(CCCc1c[nH]c2ccccc12)N1CCC2(CC1)CC(CCOCC1CC1)CCO2 (configuration not stated) ?
inactive

Hello, I am checking results. What call was entered for Cc1noc2c(Nc3ccc(Cl)cc3)cc(-c3cccnc3)nc12 ?
inactive

Hello, I am checking results. What call was entered for O=C(CCc1ccnc(N2CCCC2)c1)N1CCN(c2ccccc2)CC1 ?
inactive

Hello, I am checking results. What call was entered for O=C(CCc1ccccc1)Nc1ccc([C@@H](O)[C@H]2COCC(=O)N2Cc2ccccc2F)cc1 ?
inactive

Hello, I am checking results. What call was entered for COc1ccc(-c2cc3c(nc2-c2ccccc2)nc(C(=O)NCCN(C)C)n3C)cc1OC ?
inactive

Hello, I am checking results. What call was entered for COC[C@@H]1[C@H](NC(=O)C2(Cn3ccnc3)CC2)[C@@H]2CCO[C@H]12 ?
inactive

Hello, I am checking results. What call was entered for Cc1cccc(CN2CCCN(Cc3ccncc3)C(c3ccccc3)CC(=O)NCC2)c1 (configuration not stated) ?
inactive

Hello, I am checking results. What call was entered for CC1=C[C@@H](CN2CCC(O)CC2)[C@H](C(C)C)C[C@H]1Cc1nnc(-c2ccccc2F)o1 ?
inactive

Hello, I am checking results. What call was entered for O=C(NCc1ccc(F)cc1)C1CCCN(c2ccnc3ccnn23)C1 (configuration not stated) ?
inactive

Hello, I am checking results. What call was entered for O=C(NCC1CC1)c1cn(C2CN(C(=O)C3CCOC3)C2)nn1 (configuration not stated) ?
inactive

Hello, I am checking results. What call was entered for CCSc1ncc(Cl)c(C(=O)Nc2cc(C)ccc2C)n1 ?
inactive

Hello, I am checking results. What call was entered for CCOc1ccc(N(Cc2ccccc2)C(=O)c2nc(S(C)(=O)=O)ncc2Cl)cc1 ?
active

Hello, I am checking results. What call was entered for O=C1[C@@H]2C[C@@H](CN2Cc2ccc3ccccc3n2)Oc2ccccc2N1Cc1ccccc1 ?
inactive

Hello, I am checking results. What call was entered for Oc1ccccc1CN1CCC(O)(c2csc(CN3CCN(c4ccccn4)CC3)n2)CC1 ?
inactive

Hello, I am checking results. What call was entered for COC(=O)[C@@H]1Cc2c([nH]c3ccccc23)[C@H]2C[C@H](NCCNC(C)=O)C[C@@H](c3ccc(C)cc3)N21 ?
inactive

Hello, I am checking results. What call was entered for COCCN(C)Cc1ccc(CC2CCN(C(=O)C3(c4ccc(OC)cc4)CC3)CC2)cc1 ?
inactive

Hello, I am checking results. What call was entered for c1cn(-c2ccc(N3CCCCCC3)nc2)c(-c2cc3n(n2)CCCNC3)n1 ?
inactive
